system: A549/ATCC NSCLC; assay: NCI-60 one-dose screen, 48 h (100 = growth as untreated, 0 = no growth, -100 = all killed); details: 10 µM unless noted
About 83,000 compounds went through this panel and 20% of them were active in at least one assay; those are over-represented in the sample as a whole.

>  <compound>
CCOc1ccccc1NC1=C(Cl)C(=O)c2nc(C)ccc2C1=O

>  <growth (%)>
59.1

$$$$
>  <compound>
CCOC(=O)C(=O)/C(=C\c1ccc(Cl)cc1)C(=O)N1C(=S)NC(=O)C1CC(C)C (stereo not given)

>  <growth (%)>
104

$$$$
>  <compound>
Cc1ccc(C2=Nn3c(nnc3-c3ccccc3)SC2)cc1

>  <growth (%)>
44.6

$$$$
>  <compound>
N#Cc1cccc(CN2CCC3=C(C2)C(=O)N(Cc2ccc(Cl)cc2)C2=NCCN23)c1

>  <growth (%)>
27.2

$$$$
>  <compound>
O=C(/C=C/c1ccc(F)cc1)c1ccc(O)cc1

>  <growth (%)>
92.2

$$$$

* * *

tested on: MALME-3M melanoma; assay: NCI-60 one-dose screen, 48 h; settings: 10 µM unless noted
The panel holds about 83,000 compounds, 20% with a hit somewhere; the sample as a whole holds those more often. Active and inactive are the calls of the source. The calls were made as follows: active = growth percent below 10; inactive = the rest.
Outcomes: true (1) = active, false (0) = inactive

>  <molecule>
Nc1nc(-c2cccc([N+](=O)[O-])c2)c(N=Nc2ccccc2)s1

>  <category label>
false (0)

$$$$
>  <molecule>
CCc1cccc2c3c(sc12)C(c1ccc(OC)cc1)C(C#N)=C(/N=C/c1ccc(Cl)cc1)O3 (stereo unspecified)

>  <category label>
false (0)

$$$$
>  <molecule>
COc1cc(Cn2cc3c(c2)-c2onc(CN4CCOCC4)c2CC3)cc(OC)c1OC

>  <category label>
false (0)

$$$$
>  <molecule>
Nc1nc(-c2cccc([N+](=O)[O-])c2)c(N=Nc2ccc(Br)cc2)s1

>  <category label>
true (1)

$$$$
>  <molecule>
CCN(CC)c1ccc(NC2=C(Cl)C(=O)c3nc(C)ccc3C2=O)cc1

>  <category label>
true (1)

$$$$
>  <molecule>
Cc1ccc(-n2cc(/C=N/NC(=O)c3ccncc3)c(-c3ccc(S(C)(=O)=O)cc3)n2)cc1

>  <category label>
false (0)

$$$$
>  <molecule>
CC1(C)CC[C@]2(CN)CC[C@]3(C)C(=CC[C@@H]4[C@@]5(C)CCCNC(C)(C)[C@@H]5CC[C@]43C)[C@H]2C1

>  <category label>
false (0)

$$$$
>  <molecule>
COc1cc(OC)c(/C=C/S(=O)(=O)Cc2ccc(OC)c(NCC(=O)NO)c2)c(OC)c1

>  <category label>
false (0)

$$$$
>  <molecule>
COc1ccc(/C(N)=N/C(N)=N/c2nc3ccccc3s2)cc1

>  <category label>
false (0)

$$$$
>  <molecule>
Oc1ccc(CSc2nnc(-c3ccc(Cl)cc3)n2-c2ccccc2)c2cccnc12

>  <category label>
false (0)

$$$$
>  <molecule>
O=C(CSc1nnc(-c2ccc3nc(-c4ccccc4)[nH]c3c2)o1)Nc1ccc(C(=O)/C=C/c2ccccc2)cc1

>  <category label>
false (0)

$$$$
>  <molecule>
O=C(/C=C/c1ccc(F)cc1)c1ccc(O)cc1

>  <category label>
false (0)

$$$$
>  <molecule>
CC(=O)c1cc(C(=O)N2c3ccccc3Sc3ccccc32)n2ccc3ccccc3c12

>  <category label>
false (0)

$$$$
>  <molecule>
COc1ccc2c(c1)c(CC(=O)[Se]CC(=O)O)c(C)n2C(=O)c1ccc(Cl)cc1

>  <category label>
false (0)

$$$$
>  <molecule>
CNC(=O)c1cc(Oc2ccc3nc(NC(=O)c4ccc(N5CCOCC5)c(C(F)(F)F)c4)sc3c2)ccn1

>  <category label>
false (0)

$$$$
>  <molecule>
N#Cc1c(NC(=O)c2cccc(C(F)(F)F)c2F)sc2c1CCC(=O)C2

>  <category label>
true (1)

$$$$
>  <molecule>
CCn1c(SCC(=O)Nc2cccc(C(=O)/C=C/c3ccccc3Cl)c2)nc2ccccc2c1=O

>  <category label>
false (0)

$$$$
>  <molecule>
CCOP(=O)(OCC)OC[C@]12CCC(C)(C)C=C1[C@H]1CC[C@@H]3[C@@]4(C)CC[C@H](OP(=O)(OCC)OCC)C(C)(C)[C@@H]4CC[C@@]3(C)[C@]1(C)CC2

>  <category label>
true (1)

$$$$
>  <molecule>
COc1ccccc1C(=O)Nc1cccc2c1C(=O)C(=O)C=C2

>  <category label>
false (0)

$$$$
>  <molecule>
CCOC(=O)C(=O)CC(=O)N1C(=S)NC(=O)C1CC(C)C (stereo unspecified)

>  <category label>
false (0)

$$$$
>  <molecule>
O=S(=O)(NCCNc1nccc(-n2cnc3ccccc32)n1)c1ccc(Cl)cc1

>  <category label>
false (0)

$$$$
>  <molecule>
Nc1ccccc1NC(=O)c1ccc(NC(=O)C/C=C/c2cccnc2)cn1

>  <category label>
false (0)

$$$$
>  <molecule>
C[C@H]1c2[nH]c3ccccc3c2C[C@H]2C(=O)N(CCCCCCC(=O)NO)CC(=O)N21

>  <category label>
false (0)

$$$$
>  <molecule>
O=S(=O)(NCCNc1nccc(-n2cnc3ccccc32)n1)c1ccc(Br)cc1

>  <category label>
false (0)

$$$$
>  <molecule>
CC1(C)CC[C@]23CC[C@]4(C)[C@H](CC[C@@H]5[C@@]6(C)CCCN(CO)C(C)(C)[C@@H]6CC[C@]54C)[C@H]2[C@H]1OC3

>  <category label>
false (0)

$$$$
>  <molecule>
O=S(=O)(NCCCNc1nccc(-c2[nH]c(-c3ccccc3)nc2-c2ccc(Cl)c(O)c2)n1)c1cccc(F)c1

>  <category label>
true (1)

$$$$
>  <molecule>
CC(=O)c1nnn(-c2c(C(=O)n3nc(C)cc3C)sc(=S)n2-c2ccccc2)c1C

>  <category label>
false (0)

$$$$
>  <molecule>
COc1ccc([C@H]2[C@H](O)C(=O)N2c2cc(OC)c(OC)c(OC)c2)cc1F

>  <category label>
false (0)

$$$$
>  <molecule>
Cc1cc(S(=O)(=O)N(C)C)cc(NCC(=O)NC(=O)NCC(C)C)c1C

>  <category label>
false (0)

$$$$
>  <molecule>
C=CCn1c(SCC(=O)Nc2ccc(C(=O)/C=C/c3ccc(C)cc3)cc2)nnc1-c1c[nH]c2ccccc12

>  <category label>
false (0)

$$$$
>  <molecule>
O=C1[C@@H]2Cc3c([nH]c4ccccc34)[C@H](c3c(Cl)cccc3Cl)N2C(=O)CN1C1CCN(CC2CCCCC2)CC1

>  <category label>
false (0)

$$$$

* * *

tested on: HOP-62 NSCLC; test: NCI-60 one-dose screen, 48 h; conditions: 10 µM unless noted
About 83,000 compounds went through this panel and 20% of them were active in at least one assay; those are over-represented in the sample as a whole. Active and inactive are the calls of the source. Rule for the calls: active = growth percent below 10; inactive = the rest.
Outcomes: y (active), n (inactive)

>  <compound>
Nc1nc(-c2cccc([N+](=O)[O-])c2)c(N=Nc2ccc(Br)cc2)s1

>  <category label>
y

$$$$
>  <compound>
CCOC(=O)C1=NNC(c2ccc(Cl)cc2)C1C(=O)N1C(=S)NC(=O)C1CC(C)C (stereo unspecified)

>  <category label>
n

$$$$
>  <compound>
O=C(NNc1nc2cc(F)cc(F)c2n2cccc12)c1cnccn1

>  <category label>
n

$$$$
>  <compound>
CCN(CC)c1ccc(NC2=C(Cl)C(=O)c3nc(C)ccc3C2=O)cc1

>  <category label>
n

$$$$
>  <compound>
c1ccc(C(c2nc3ncncc3[nH]2)N2CSc3nc4ncncc4n3C2)cc1 (stereo unspecified)

>  <category label>
n

$$$$
>  <compound>
Oc1cccc2ccc(-c3nnc(SCc4ccc(O)c5ncccc45)n3-c3ccccc3)nc12

>  <category label>
n

$$$$
>  <compound>
COc1cc(-c2nc(-c3ccccc3)[nH]c2-c2ccnc(NCCCNS(=O)(=O)c3cccc(F)c3)n2)ccc1Cl

>  <category label>
n

$$$$
>  <compound>
Nc1nc(-c2cccc([N+](=O)[O-])c2)c(N=Nc2cccc([N+](=O)[O-])c2)s1

>  <category label>
n

$$$$
>  <compound>
C=C(C)[C@@H]1CC[C@]2(COCCCNCCC#N)CC[C@]3(C)[C@H](CC[C@@H]4[C@@]5(C)CC[C@H](OCCCNCCC#N)C(C)(C)[C@@H]5CC[C@]43C)[C@@H]12

>  <category label>
n

$$$$
>  <compound>
Cn1cc(-c2nnc(N)nc2-c2c[nH]c3ccc(F)cc23)c2cc(F)ccc21

>  <category label>
n

$$$$
>  <compound>
COc1cc(-c2nn(C(C)(C)C)cc2-c2ccnc(NCCCNS(=O)(=O)c3ccccc3)n2)ccc1Cl

>  <category label>
n

$$$$
>  <compound>
CCCCCc1ccc(S(=O)(=O)Nc2cccc(-c3csc(NC(=O)CNCCN(C)C)n3)c2)cc1

>  <category label>
n

$$$$
>  <compound>
CCc1nn2c(C)cc(C)nc2c1Cc1ccc(/C=C/CN2CCN(CCOCCOCCN3CCN(C/C=C/c4ccc(Cc5c(CC)nn6c(C)cc(C)nc56)cc4)CC3)CC2)cc1

>  <category label>
n

$$$$
>  <compound>
COc1ccc(S(=O)(=O)NCCCNc2nccc(-c3[nH]c(-c4ccccc4)nc3-c3ccc(Cl)c(O)c3)n2)cc1

>  <category label>
n

$$$$
>  <compound>
COC(=O)c1[nH]nc2c1C1(C(=O)c3cccc4cccc1c34)C(C#N)=C(N)O2 (stereo unspecified)

>  <category label>
n

$$$$
>  <compound>
NC(N)=Nc1ccc(Oc2cccc(Nc3ccc(Br)c(C(F)(F)F)c3)c2)cn1

>  <category label>
y

$$$$
